system: HL-60(TB) leukemia; experiment: NCI tumour cell line growth inhibition, 48 h
I'd appreciate it if you could supply GI50 values for the items below.

Check out these entries, answers already filled in.
- NC(=O)C1c2ccccc2C=Cc2ccccc21: > 100 µM
- O=Cc1ccc(-c2ccc(-c3nc4ccccc4[nH]3)cc2)s1: 47.1 µM
- CN[C@@H](C)C(=O)N[C@H]1CN(C(=O)CC(C)C)CC[C@H]2CC[C@@H](C(=O)NC(c3ccccc3)c3ccccc3)N2C1=O: 29.1 µM

Now, please, on to the next compound.
Input line: Dear colleague, I am looking for the recorded GI50 of the following compound: `C=C(C)[C@@H]1CC[C@]2(C(N)=O)CC[C@]3(C)[C@H](CC[C@@H]4[C@@]5(C)CC[C@H](O)C(C)(C)[C@@H]5CC[C@]43C)[C@@H]12`
Output line: 3.59 µM
